Entries annotated with measured melting point

INSERT INTO assay_data (molecule, reported_measurement) VALUES
  ('COC(=O)C1=C(C)NC(C)=C(C(=O)OCCCBr)C1c1cccc([N+](=O)[O-])c1 (centres undefined)', '112 to 114 °C'),
  ('COC(=O)C1(Cc2ccc(Br)cc2)CCCN1C(=O)Nc1cc(Cl)cc(Cl)c1 (centres undefined)', '171 °C'),
  ('COc1ccc(C2=NN(CCCCBr)C(=O)[C@H]3CC=CC[C@@H]23)cc1Cl (relative stereo)', '109 to 111 °C');

Enquiry: Complete the entry with melting point for Cc1sc(-c2ccccc2)nc1COc1cc(COc2ccccc2CC(=O)O)on1
Return: 147 to 148 °C
